tested on: c-Abl (mouse); assay: phosphorylation enrichment, bacterial display (enrichment ratio); higher = better substrate or ligand; peptides without Tyr show the background;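 note: 11-residue human phosphosite peptides and single-mutation variants displayed on the E. coli surface, counted by deep sequencing, each peptide's frequency after selection divided by its frequency in the unselected input library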;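 note: frequency after pTyr selection over input frequency; kinase dosed for 20-30% of maximal phosphorylation in three min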

Macromolecule sequence: RFLKDYGEFEV [GINS1_Y156_C152Y_YF]
phosphorylation enrichment: 0.835
--
Macromolecule sequence: WYQTKYEELQV [KRT6B_Y360_I365V]
phosphorylation enrichment: 0.741
--
Macromolecule sequence: QTSTDYDIRFY [CSNK2A1_Y131_L128S]
phosphorylation enrichment: 1.2
--
Macromolecule sequence: WFQTKYEELQI [KRT6B_Y360_YF]
phosphorylation enrichment: 0.651
--
Macromolecule sequence: CDGKEYDPVEA [MAPRE2_Y167_Y162C]
phosphorylation enrichment: 0.883
--
Macromolecule sequence: EPVSDYINANV [PTPN11_Y304_I309V]
phosphorylation enrichment: 0.567
--
Macromolecule sequence: RLGLQYSQGLV [EIF2B4_Y214]
phosphorylation enrichment: 1.16
--
Macromolecule sequence: TVSQPYSFIEF [SEC22B_Y110_R108Q]
phosphorylation enrichment: 0.805
--
Macromolecule sequence: KKIMGYSIRTI [IDS_Y490_I485K]
phosphorylation enrichment: 0.538
--
Macromolecule sequence: DTLMEYLENPK [CYCS_Y68]
phosphorylation enrichment: 0.95
--
Macromolecule sequence: KIVFVYVKKRS [DNAI2_Y7_E2K_YF]
phosphorylation enrichment: 0.576
--
Macromolecule sequence: QSPQLYKQLCI [DARS1_Y253_M256L]
phosphorylation enrichment: 0.449
--
Macromolecule sequence: QEKKGYFEDRR [GLUL_Y336]
phosphorylation enrichment: 1.2
--
Macromolecule sequence: LRSKQYLRNPP [SHC1_Y315_F312S]
phosphorylation enrichment: 0.575
--
Macromolecule sequence: ARLEYYENEKK [IRS1_Y47]
phosphorylation enrichment: 0.808
--
Macromolecule sequence: DLEKTYNTFRS [B4GALNT2_Y538_A533D_YF]
phosphorylation enrichment: 0.523
--
Macromolecule sequence: ISNATYKQIGL [FLT1_Y199_E201Q]
phosphorylation enrichment: 0.566
--
Macromolecule sequence: RTLSEYARRHV [RERE_Y1259_P1262R]
phosphorylation enrichment: 2.14
--
Macromolecule sequence: GHLFAYDWISI [BEST1_Y227_YF]
phosphorylation enrichment: 0.526
--
Macromolecule sequence: GNHISYYQSDG [CACNA1C_Y1757_V1755I]
phosphorylation enrichment: 0.403
--
Macromolecule sequence: SPPILYSFFLN [FCRL6_Y239_D244N_YF]
phosphorylation enrichment: 2.75
--
Macromolecule sequence: PGLKGYPGLSG [COL4A2_Y306_R304K]
phosphorylation enrichment: 0.639
--
Macromolecule sequence: MHYSNYVSKGS [PDGFRA_Y849_D846Y]
phosphorylation enrichment: 0.432
--
Macromolecule sequence: KPVDTYFDSTR [DYNC2H1_Y2230_M2227V_YF]
phosphorylation enrichment: 0.611

* * *

test system: c-Src; experiment: phosphorylation enrichment, bacterial display (enrichment ratio); higher = better substrate or ligand; peptides without Tyr show the background
Record met whenever phosphorylation enrichment is at 0.4 or higher; record not met when lower.

Macromolecule sequence: VSFGEYRFRSV [CFTR_Y515_D513G_YF]
Classification: met
--
Macromolecule sequence: ERLLDYTRTVQ [INPP5E_Y439]
Classification: met
--
Macromolecule sequence: LPKDLYLISQM [LARP4_Y141_S137P]
Classification: met
--
Macromolecule sequence: KGEPQYSSHSS [SIPA1L3_Y1265]
Classification: met
--
Macromolecule sequence: FRNSLYAPDYS [FAM92A_Y226]
Classification: met
--
Macromolecule sequence: YKEDPYLVVNP [MCM6_Y810_E806K]
Classification: met
--
Macromolecule sequence: QFNMQYSSSAA [ERBB2IP_Y981_I979M_YF]
Classification: not met
--
Macromolecule sequence: GIKAAYEAERG [LMNA_Y81_L85R]
Classification: not met
--
Macromolecule sequence: LKKKQYTSIHH [APP_Y728]
Classification: met
--
Macromolecule sequence: LGNFNYEQRGA [API5_Y497]
Classification: met
--
Macromolecule sequence: ATDLAYFLVRE [ASL_Y375_K380E_YF]
Classification: met
--
Macromolecule sequence: DTVRIYDDDFF [UBA1_Y560_E557V]
Classification: met
--
Macromolecule sequence: KQELVYPNKKL [OPTN_Y356_T357P]
Classification: not met
--
Macromolecule sequence: EEEPVYKAEPE [HCLS1_Y360_E361K]
Classification: met
--
Macromolecule sequence: RKGGSYSQAAS [HLA-A_Y344_T345S]
Classification: met
--
Macromolecule sequence: WQQQSYLYSGI [CTNNB1_Y30_D32Y]
Classification: met
--
Macromolecule sequence: KKHIPYREHKS [CSNK1G1_Y205]
Classification: met
--
Macromolecule sequence: FFRDGHMPRQF [GSS_Y270_Y270H_YF]
Classification: not met
--
Macromolecule sequence: YRDALYKFIVD [PHEX_Y250_M253I]
Classification: met
--
Macromolecule sequence: FKDFFYCWNTF [AICDA_Y146_YF]
Classification: met
--
Macromolecule sequence: EQLGEYKFQNA [ALB_Y425]
Classification: not met
--
Macromolecule sequence: SGASGYSATST [CERT1_Y143]
Classification: met
--
Macromolecule sequence: SCRSKYVGLWG [KCNQ1_Y184_G179S]
Classification: met
--
Macromolecule sequence: VHNLNYFKKTT [FGFR3_Y647_D646N_YF]
Classification: met
--
Macromolecule sequence: NDLMEYAKQHG [ASS1_Y163]
Classification: met
--
Macromolecule sequence: SDGGCYEQLFV [MC4R_Y41]
Classification: met
--
Macromolecule sequence: YETSHYLASPD [CTNND2_Y1217_P1218L]
Classification: met
--
Macromolecule sequence: SLDLSYFPTSS [EMD_Y181_YF]
Classification: met
--
Macromolecule sequence: RARPPYTVAAD [ANKZF1_Y572]
Classification: not met
--
Macromolecule sequence: ADRNHYRRFPR [YBX1_Y145_YF]
Classification: met
--
Macromolecule sequence: FSPFDYQPCLA [TNS1_Y798_YF]
Classification: met
--
Macromolecule sequence: DLQDEYDFKCK [STAT1_Y170]
Classification: met
--
Macromolecule sequence: INQGPYENRSV [ATP6V1B1_Y462]
Classification: met
--
Macromolecule sequence: RLSVDYSKKSK [TUBA3E_Y161]
Classification: not met
--
Macromolecule sequence: PFWKLYESVKK [MKI67_Y241]
Classification: met
